Every entry's value here was drawn from patent US7291612B2.

target_or_test_system: CD80-CD28 interaction (Homo sapiens)
Construct: mouse Fab fragment (fusion partner)
Sequence (P33681 35-242 limits assumed): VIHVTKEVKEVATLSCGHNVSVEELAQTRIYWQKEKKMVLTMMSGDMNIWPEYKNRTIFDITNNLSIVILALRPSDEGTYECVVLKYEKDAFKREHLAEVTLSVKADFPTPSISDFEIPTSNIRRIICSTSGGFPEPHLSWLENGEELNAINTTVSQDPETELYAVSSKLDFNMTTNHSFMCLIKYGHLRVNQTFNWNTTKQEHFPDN
assay_protocol: cell free Homogenous Time Resolved Fluorescence (HTRF) assay, inhibition of the CD80-CD28 interaction
Type: binding
condition_parameters: 4 hours at room temperature, read-out: Activity (EC50 in summary form)
Quick list: EC50 per entry.
outcome_measure: EC50

> print(dat)
                                    molecule     readout.value
 1  CN1CCN(CCCNC(=O)c2ccc(-n3nc4c5cccc(F)c5[nH]cc-4c3=O)cc2)CC1 [Example 98]         < 1000 nM
 2  COC(=O)CNC(=O)c1cccc(-n2nc3c4cccc(F)c4[nH]cc-3c2=O)c1 [Example 61]        > 10000 nM
 3  CC(C)(C)OC(=O)Nc1ccc(-n2nc3c4cccc(F)c4[nH]cc-3c2=O)cc1 [Example 150]         < 1000 nM
 4  CCOC(=O)C1CCN(C(=O)c2cccc(-n3nc4c5cccc(F)c5[nH]cc-4c3=O)c2)CC1 [Example 64]        > 10000 nM
 5  CN(Cc1ccccc1)C(=O)c1ccc(-n2nc3c4cccc(F)c4[nH]cc-3c2=O)cc1 [Example 69]  1000 to 10000 nM
 6  O=C(NCCCNC1CCCCC1)c1ccc(-n2nc3c4cccc(F)c4scc-3c2=O)cc1 [Example 170]  1000 to 10000 nM
 7  CN(C)CC(C)(C)CNC(=O)c1ccc(-n2nc3c4cccc(F)c4[nH]c(C4CC4)c-3c2=O)cc1 [Example 140]         < 1000 nM
 8  O=C(NCCc1ccccn1)c1ccc(-n2nc3c4cccc(F)c4[nH]cc-3c2=O)cc1 [Example 127]        > 10000 nM
 9  O=C(c1ccc(-n2nc3c4cccc(F)c4[nH]cc-3c2=O)cc1)N1CCCCC1 [Example 67]  1000 to 10000 nM
10  CC(C)CC(=O)Nc1ccc(-n2nc3c4cccc(F)c4[nH]cc-3c2=O)cc1 [Example 4]  1000 to 10000 nM
11  O=C(CC1CCCC1)Nc1ccc(-n2nc3c4cccc(F)c4[nH]cc-3c2=O)cc1 [Example 19]  1000 to 10000 nM
12  CN(C)CCNC(=O)c1ccc(-n2nc3c4cccc(F)c4[nH]cc-3c2=O)cc1 [Example 71]         < 1000 nM
13  CCC(C)C(=O)Nc1ccc(-n2nc3c4cccc(F)c4[nH]cc-3c2=O)cc1 (stereo not shown) [Example 1]         < 1000 nM
